Taken from patent US20080146555A1.

assayed_system: Blk (Homo sapiens, UniProt P51451)
Construct: purchased Upstate 14-517
Sequence (P51451 whole entry): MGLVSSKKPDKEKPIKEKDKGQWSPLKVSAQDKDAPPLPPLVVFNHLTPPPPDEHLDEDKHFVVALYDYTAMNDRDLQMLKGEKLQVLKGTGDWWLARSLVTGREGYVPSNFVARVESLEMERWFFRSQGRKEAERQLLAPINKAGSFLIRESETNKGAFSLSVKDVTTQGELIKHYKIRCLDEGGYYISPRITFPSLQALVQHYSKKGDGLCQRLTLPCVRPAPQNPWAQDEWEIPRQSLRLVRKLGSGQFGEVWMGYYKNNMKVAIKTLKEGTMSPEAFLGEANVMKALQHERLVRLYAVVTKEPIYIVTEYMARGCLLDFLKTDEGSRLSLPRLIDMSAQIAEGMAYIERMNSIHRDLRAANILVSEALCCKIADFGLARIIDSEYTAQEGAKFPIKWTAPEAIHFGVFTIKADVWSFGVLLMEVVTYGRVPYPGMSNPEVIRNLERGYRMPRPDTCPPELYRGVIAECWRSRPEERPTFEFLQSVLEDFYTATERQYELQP
method_description: Blk kinase assay
Assay type: biochemical
recorded_conditions: kinase panel; read-out: Blk IC50
Where a name gives a salt, the structure may show the parent alone.
assay_metric: IC50

// fetch Blk (Homo sapiens, UniProt P51451) IC50 for COCCN1CCN(Cc2ccc(-c3n[nH]c4c3C(=O)c3c(NC(=O)NN5CCOCC5)cccc3-4)cc2)CC1 [Compound B16, dihydrochloride]
< 0.1 µM

###

assayed_system: Yes (Homo sapiens)
Construct: purchased Upstate 14-478
Sequence (P07947 whole entry): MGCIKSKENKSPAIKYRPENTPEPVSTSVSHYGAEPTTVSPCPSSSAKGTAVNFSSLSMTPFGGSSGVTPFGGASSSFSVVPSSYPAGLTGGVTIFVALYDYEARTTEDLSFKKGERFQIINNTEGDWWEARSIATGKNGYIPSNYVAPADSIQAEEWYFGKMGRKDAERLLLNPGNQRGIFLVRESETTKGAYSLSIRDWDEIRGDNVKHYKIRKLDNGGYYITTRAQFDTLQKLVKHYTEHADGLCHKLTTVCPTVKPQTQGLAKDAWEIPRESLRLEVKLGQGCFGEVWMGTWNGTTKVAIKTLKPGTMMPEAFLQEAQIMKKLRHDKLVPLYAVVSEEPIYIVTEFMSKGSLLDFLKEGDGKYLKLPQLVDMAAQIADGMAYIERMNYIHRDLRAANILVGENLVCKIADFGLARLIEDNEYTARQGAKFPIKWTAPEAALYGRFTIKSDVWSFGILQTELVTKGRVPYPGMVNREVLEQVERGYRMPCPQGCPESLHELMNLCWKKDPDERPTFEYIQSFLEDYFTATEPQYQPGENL
method_description: Yes kinase assay
Format: biochemical
recorded_conditions: kinase panel, 10 μM ATP; read-out: Yes IC50
Where a name gives a salt, the structure may show the parent alone.
assay_metric: IC50

Requested field: IC50. Item: COCCN1CCN(Cc2ccc(-c3n[nH]c4c3C(=O)c3c(NC(=O)NN5CCOCC5)cccc3-4)cc2)CC1 [Compound B16, dihydrochloride]
< 100 nM
